target: Mu-type opioid receptor (Homo sapiens, UniProt P35372); experiment: Activity at monocloned mu opioid receptor expressed in CHO cells by [35S]GTPgammaS binding assay; format: functional, cell-based
Sequence (P35372 whole entry): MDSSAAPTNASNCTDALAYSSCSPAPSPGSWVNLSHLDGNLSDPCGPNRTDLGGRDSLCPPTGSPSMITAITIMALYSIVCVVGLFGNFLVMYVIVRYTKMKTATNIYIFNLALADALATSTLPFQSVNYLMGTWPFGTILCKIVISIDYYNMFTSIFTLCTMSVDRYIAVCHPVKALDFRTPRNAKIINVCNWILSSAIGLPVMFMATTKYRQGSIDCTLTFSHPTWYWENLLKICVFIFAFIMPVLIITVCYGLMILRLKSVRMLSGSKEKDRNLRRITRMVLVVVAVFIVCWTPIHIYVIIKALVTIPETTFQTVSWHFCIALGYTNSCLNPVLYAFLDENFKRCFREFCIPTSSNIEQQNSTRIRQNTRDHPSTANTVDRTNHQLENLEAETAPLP
Readout: Emax (%)

[
  {
    "Smiles record": "O=C(N[C@@H]1CC[C@@]2(O)[C@H]3Cc4ccc(O)c5c4[C@@]2(CCN3CC2CC2)[C@H]1O5)c1cnc2ccccc2c1",
    "Readout": "Emax",
    "Value": 196
  },
  {
    "Smiles record": "O=C(N[C@@H]1CC[C@@]2(O)[C@H]3Cc4ccc(O)c5c4[C@@]2(CCN3CC2CC2)[C@H]1O5)c1ccccn1",
    "Readout": "Emax",
    "Value": 151
  },
  {
    "Smiles record": "O=C(N[C@H]1CC[C@@]2(O)[C@H]3Cc4ccc(O)c5c4[C@@]2(CCN3CC2CC2)[C@H]1O5)c1ccccn1",
    "Readout": "Emax",
    "Value": 134
  },
  {
    "Smiles record": "O=C(N[C@H]1CC[C@@]2(O)[C@H]3Cc4ccc(O)c5c4[C@@]2(CCN3CC2CC2)[C@H]1O5)c1ccc2ccccc2n1",
    "Readout": "Emax",
    "Value": 240
  },
  {
    "Smiles record": "O=C(N[C@@H]1CC[C@@]2(O)[C@H]3Cc4ccc(O)c5c4[C@@]2(CCN3CC2CC2)[C@H]1O5)c1ccncc1",
    "Readout": "Emax",
    "Value": 83.3
  },
  {
    "Smiles record": "O=C(N[C@@H]1CC[C@@]2(O)[C@H]3Cc4ccc(O)c5c4[C@@]2(CCN3CC2CC2)[C@H]1O5)c1cccnc1",
    "Readout": "Emax",
    "Value": 107
  },
  {
    "Smiles record": "O=C(N[C@H]1CC[C@@]2(O)[C@H]3Cc4ccc(O)c5c4[C@@]2(CCN3CC2CC2)[C@H]1O5)c1ccncc1",
    "Readout": "Emax",
    "Value": 137
  }
]

###

pKi: −log10 of the molar value.
Here's a batch of molecules along with measured pKi for Mu-type opioid receptor (Homo sapiens, UniProt P35372).

[
  {
    "Smiles record": "O=C(N[C@@H]1CC[C@@]2(O)[C@H]3Cc4ccc(O)c5c4[C@@]2(CCN3CC2CC2)[C@H]1O5)c1ccc2ccccc2c1",
    "pKi": 7.25
  },
  {
    "Smiles record": "O=C(N[C@@H]1CC[C@@]2(O)[C@H]3Cc4ccc(O)c5c4[C@@]2(CCN3CC2CC2)[C@H]1O5)c1ccccn1",
    "pKi": 8.23
  },
  {
    "Smiles record": "O=C(N[C@H]1CC[C@@]2(O)[C@H]3Cc4ccc(O)c5c4[C@@]2(CCN3CC2CC2)[C@H]1O5)c1ccccn1",
    "pKi": 8.58
  },
  {
    "Smiles record": "O=C(N[C@@H]1CC[C@@]2(O)[C@H]3Cc4ccc(O)c5c4[C@@]2(CCN3CC2CC2)[C@H]1O5)c1cccnc1",
    "pKi": 9.85
  },
  {
    "Smiles record": "O=C(N[C@H]1CC[C@@]2(O)[C@H]3Cc4ccc(O)c5c4[C@@]2(CCN3CC2CC2)[C@H]1O5)c1ccccc1",
    "pKi": 8.85
  },
  {
    "Smiles record": "O=C(N[C@@H]1CC[C@@]2(O)[C@H]3Cc4ccc(O)c5c4[C@@]2(CCN3CC2CC2)[C@H]1O5)c1cc2ccccc2cn1",
    "pKi": 10.00
  },
  {
    "Smiles record": "O=C(N[C@H]1CC[C@@]2(O)[C@H]3Cc4ccc(O)c5c4[C@@]2(CCN3CC2CC2)[C@H]1O5)c1ccc2ccccc2c1",
    "pKi": 8.08
  },
  {
    "Smiles record": "O=C(N[C@H]1CC[C@@]2(O)[C@H]3Cc4ccc(O)c5c4[C@@]2(CCN3CC2CC2)[C@H]1O5)c1cccnc1",
    "pKi": 9.82
  },
  {
    "Smiles record": "O=C(N[C@H]1CC[C@@]2(O)[C@H]3Cc4ccc(O)c5c4[C@@]2(CCN3CC2CC2)[C@H]1O5)c1cc2ccccc2cn1",
    "pKi": 9.26
  },
  {
    "Smiles record": "O=C(N[C@@H]1CC[C@@]2(O)[C@H]3Cc4ccc(O)c5c4[C@@]2(CCN3CC2CC2)[C@H]1O5)c1ccc2ccccc2n1",
    "pKi": 9.96
  }
]
